- target_under_test: eeAChE (Electrophorus electricus)
- Construct: eeAChE, from the electric eel; purchased Sigma Aldrich; host or cells: electric eel (natural source)
- assay_remarks: biochemical
- Parameters: species or system electric eel
- assay_context: AChE from electric eel; read-out: IC50 ± SD eeAChE
- Procedure: The inhibitory activities of the synthesised compounds against eeAChE (from electric eel) and eqBuChE (from equine serum) were tested by the modified Ellman’s method[26]^,[27]. […] The determination of AChE and BuChE inhibitory potency of the synthesised compounds were evaluated by Ellman assay, the detailed procedure referred to our previous work[26]^,[27].
pIC50: −log10 of the molar value.
Please use Fulfilled whenever pIC50 is not below 5, and Not fulfilled whenever it is.

compound | assigned_category
CCN(CC)C(=O)Oc1cccc2ncccc12 [Compound 3f, Quinolin-5-yl diethylcarbamate] | Fulfilled
CC(C)N(C(=O)Oc1cccc2cccnc12)C(C)C [Compound 3q, Quinolin-8-yl diisopropylcarbamate] | Not fulfilled
O=C(Oc1ccnc2ccccc12)N1CCOCC1 [Compound 3d, Quinolin-4-yl morpholine-4-carboxylate] | Not fulfilled
O=C(Oc1ccc2ncccc2c1)N1CCOCC1 [Compound 3l, Quinolin-6-yl morpholine-4-carboxylate] | Not fulfilled

---

- target_under_test: hAChE (Homo sapiens)
- Construct: hAChE, from human erythrocytes AChE; purchased Sigma Aldrich; host or cells: human erythrocytes (natural source)
- Sequence (P22303 32-617 isoform P22303-2 limits assumed): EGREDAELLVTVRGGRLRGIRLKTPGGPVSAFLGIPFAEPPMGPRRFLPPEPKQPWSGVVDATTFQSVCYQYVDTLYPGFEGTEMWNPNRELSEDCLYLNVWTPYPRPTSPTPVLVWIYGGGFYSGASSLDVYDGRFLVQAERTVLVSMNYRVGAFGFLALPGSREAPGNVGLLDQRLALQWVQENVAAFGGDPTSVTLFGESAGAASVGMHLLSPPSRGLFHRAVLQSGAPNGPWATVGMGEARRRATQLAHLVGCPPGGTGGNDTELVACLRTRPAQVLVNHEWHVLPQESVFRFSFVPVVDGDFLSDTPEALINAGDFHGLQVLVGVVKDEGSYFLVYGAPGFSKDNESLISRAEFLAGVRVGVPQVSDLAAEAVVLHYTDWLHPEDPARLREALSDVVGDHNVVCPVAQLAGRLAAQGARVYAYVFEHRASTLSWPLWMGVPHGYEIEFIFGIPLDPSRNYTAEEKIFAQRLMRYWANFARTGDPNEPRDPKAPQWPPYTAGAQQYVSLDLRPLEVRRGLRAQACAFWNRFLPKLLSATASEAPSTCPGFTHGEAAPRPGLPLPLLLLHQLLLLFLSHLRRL
- assay_remarks: biochemical
pIC50: −log10 of the molar value.

compound | pIC50
CN(C)C(=O)Oc1cccc2ncccc12 [Compound 3e, Quinolin-5-yl dimethylcarbamate] | 4.98

---

Here the recorded IC50 is given for each entry.
- target_under_test: eeAChE (Electrophorus electricus, UniProt O42275)
- Construct: eeAChE, from the electric eel; purchased Sigma Aldrich; host or cells: electric eel (natural source)
- Sequence (O42275 24-633): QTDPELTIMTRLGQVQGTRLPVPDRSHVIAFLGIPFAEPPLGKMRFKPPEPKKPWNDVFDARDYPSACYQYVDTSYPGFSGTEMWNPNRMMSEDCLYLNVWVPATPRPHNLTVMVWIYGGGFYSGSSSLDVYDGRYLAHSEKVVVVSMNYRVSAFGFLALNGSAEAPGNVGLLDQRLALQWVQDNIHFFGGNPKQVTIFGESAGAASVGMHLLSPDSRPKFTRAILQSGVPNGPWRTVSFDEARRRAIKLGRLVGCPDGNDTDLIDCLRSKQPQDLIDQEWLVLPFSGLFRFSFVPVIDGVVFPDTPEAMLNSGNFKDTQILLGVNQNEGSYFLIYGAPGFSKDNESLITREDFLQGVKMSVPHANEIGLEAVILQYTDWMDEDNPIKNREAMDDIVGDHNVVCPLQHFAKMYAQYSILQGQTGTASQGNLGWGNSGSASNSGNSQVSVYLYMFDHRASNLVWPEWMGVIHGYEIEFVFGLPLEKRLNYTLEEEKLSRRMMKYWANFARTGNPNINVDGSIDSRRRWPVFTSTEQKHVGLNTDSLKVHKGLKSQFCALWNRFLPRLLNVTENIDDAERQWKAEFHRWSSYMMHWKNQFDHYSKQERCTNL
- assay_remarks: biochemical
- Design: species or system electric eel

molecule | units_of_measure | IC50
CCN(C)C(=O)Oc1ccnc2ccccc12 [Compound 3c, Quinolin-4-yl ethyl(methyl)carbamate] | µM | 13.2
CCN(C)C(=O)Oc1ccc2ncccc2c1 [Compound 3k, Quinolin-6-yl ethyl(methyl)carbamate] | µM | 10.3
CCN(C)C(=O)Oc1cccc2cccnc12 [Compound 3o, Quinolin-8-yl ethyl(methyl)carbamate] | µM | 8.2
CN(C)C(=O)Oc1ccnc2ccccc12 [Compound 3a, Quinolin-4-yl dimethylcarbamate] | µM | 10.8

---

- target_under_test: eeAChE (Electrophorus electricus, UniProt O42275)
- Construct: eeAChE, from the electric eel; purchased Sigma Aldrich; host or cells: electric eel (natural source)
- assay_remarks: biochemical
- Parameters: species or system electric eel
- assay_context: AChE from electric eel; read-out: IC50 ± SD eeAChE
pIC50: −log10 of the molar value.

compound | target_under_test | pIC50
CCN(CC)C(=O)Oc1ccc2ncccc2c1 [Compound 3j, Quinolin-6-yl diethylcarbamate] | eeAChE (Electrophorus electricus, UniProt O42275) | 4.91
CCN(CC)C(=O)Oc1cccc2cccnc12 [Compound 3n, Quinolin-8-yl diethylcarbamate] | eeAChE (Electrophorus electricus, UniProt O42275) | 5.01
O=C(Oc1cccc2ncccc12)N1CCOCC1 [Compound 3h, Quinolin-5-yl morpholine-4-carboxylate] | eeAChE (Electrophorus electricus, UniProt O42275) | 4.89
O=C(Oc1cccc2cccnc12)N1CCOCC1 [Compound 3p, Quinolin-8-yl morpholine-4-carboxylate] | eeAChE (Electrophorus electricus, UniProt O42275) | 4.90
CCN(CC)C(=O)Oc1ccnc2ccccc12 [Compound 3b, Quinolin-4-yl diethylcarbamate] | eeAChE (Electrophorus electricus, UniProt O42275) | 4.90

Reference source for all entries: paper PMC9873282
